Each recorded value in this set is attributed to patent US11673889B2.

- experiment.description: Liver microsome stability, mouse
- Type: in vitro ADME
- reported.conditions: Mouse liver microsome
Reported Hepatic extraction ratio Re values for the following compounds.
Give only the figure.

Past entries and their recorded results:
| compound | Hepatic extraction ratio Re |
| --- | --- |
| COc1cc2ncc3ncn([C@H](C)c4ccc(S(N)(=O)=O)cc4)c3c2cc1OC [Compound 11a] | 0.85 |
| COc1cc2ncc3ncn(Cc4ccc(S(N)(=O)=O)cn4)c3c2cc1OC [Compound 12] | 0.20 |
| COc1cc2ncc3[nH]c(=O)n(Cc4ccc(S(N)(=O)=O)cc4)c3c2cc1OC [Compound 1] | 0 |
| COc1ccc2ncc3ncn(Cc4ccc(S(N)(=O)=O)cc4)c3c2c1 [Compound 36] | 0.55 |

Moving on to the next compound.
Which Hepatic extraction ratio Re reading was recorded for the compound COc1ccc2c(c1)ncc1[nH]c(=O)n(Cc3ccc(S(N)(=O)=O)cc3)c12 [Compound 35] ?
0

====

- system.under.test: human soluble ENPP1 (Homo sapiens, UniProt P22413)
- Construct: 20 ng of human soluble ENPP1
- experiment.description: ENPP1 activity assay using p-Nitrophenyl-5′-TMP as a substrate
- Assay type: biochemical
pIC50: −log10 of the molar value.
Would you please tag the item true (1) when its pIC50 is 9 or above, and false (0) when it is below?

| smiles.notation | label.value |
| --- | --- |
| COc1ccc2c(n1)nc(C)c1nc(CN(C)C)n(Cc3cc(F)c(S(N)(=O)=O)cc3F)c12 | false (0) |
| COc1ccc2c(ncc3[nH]c(=O)n(Cc4c(F)cc(C(=O)O)cc4F)c32)n1 | false (0) |
| COc1cc2ncc3ncn(CC4CCN(S(N)(=O)=O)CC4)c3c2cc1OC | false (0) |
| COc1ccc2c(n1)nc(C)c1ncn(Cc3ccc(S(N)(=O)=O)c(F)c3)c12 | false (0) |
| COc1ccc2c(ncc3cnn(Cc4ccc(S(N)(=O)=O)cc4)c32)n1 | true (1) |
| COc1ccc2c(c1)ncc1[nH]c(=O)n(Cc3ccc(S(N)(=O)=O)cc3)c12 | true (1) |
| COc1cc2ncc3ncn(Cc4cccc(S(N)(=O)=O)c4)c3c2cc1OC | false (0) |
| COc1ccc2c(ncc3ncn(Cc4ccc(S(N)(=O)=O)c(F)c4)c32)n1 | true (1) |
| COCc1nc2cnc3nc(OC)ccc3c2n1Cc1ccc(S(N)(=O)=O)c(F)c1 | false (0) |
| COc1ccc2c(ncc3[nH]c(=O)n(Cc4cc(F)c(S(N)(=O)=O)c(F)c4)c32)n1 | false (0) |

Let's switch to this compound now.
Please indicate if the recorded pIC50 for COc1ccc2c(ncc3nc(C)n(Cc4ccc(S(N)(=O)=O)cc4)c32)n1 meets or exceeds 9.
true (1)

====

- experiment.description: Pharmacokinetics in mice
- Format: in vivo
- reported.conditions: mouse, plasma; male CD-1 mice; 1 mg/kg, iv
test.readout: clearance (mL/min/kg)
Write the value in mL/min/kg as a bare number.

Past entries and their recorded results:
| molecule | measure.unit | numeric.readout |
| --- | --- | --- |
| COc1ccc2c(ncc3nc(C)n(Cc4ccc(S(N)(=O)=O)cc4)c32)n1 [Compound 48] | mL/min/kg | 70 |
| COc1ccc2c(ncc3nc(C)n(Cc4cc(F)c(S(N)(=O)=O)cc4F)c32)n1 [Compound 70] | mL/min/kg | 26 |
| COc1cc2ncc3ncn(Cc4ccc(S(N)(=O)=O)cn4)c3c2cc1OC [Compound 12] | mL/min/kg | 180 |

Which clearance reading was recorded for the molecule COc1ccc2c(ncc3ncn([C@H](C)c4ccc(S(N)(=O)=O)cn4)c32)n1 [Compound 60] ?
78

====

- system.under.test: ENPP-1, MDA-MB-231 cells (Homo sapiens, UniProt P22413)
- experiment.description: cell-based
- reported.conditions: MDA-MB-231, read-out: % Inhibition (at 20 μM)
Would you please tag the item class 1 when its inhibition at 20 µM is 80% or above, and class 0 when it is below?

// below: answered compounds
| compound | label.value |
| --- | --- |
| COc1ccc2c(ncc3[nH]c(=O)n(Cc4c(F)cc(S(N)(=O)=O)cc4F)c32)n1 [Compound 103] | class 1 |
| COc1ccc2c(ncc3cnn(Cc4ccc(S(N)(=O)=O)cc4)c32)n1 [Compound 116] | class 0 |
| COc1ccc2c(c1)ncc1[nH]c(=O)n(Cc3ccc(S(N)(=O)=O)cc3)c12 [Compound 35] | class 0 |

Please indicate if the recorded inhibition at 20 µM for COCCc1nc2c(C)nc3nc(OC)ccc3c2n1Cc1cc(F)c(S(N)(=O)=O)cc1F [Compound 93] meets or exceeds 80%.
class 0

Please indicate if the recorded inhibition at 20 µM for COc1ccc2c(ncc3ncn(Cc4ccc(NS(N)(=O)=O)cc4)c32)n1 [Compound 46] meets or exceeds 80%.
class 0

====

- system.under.test: ENPP-1, MDA-MB-231 cells (Homo sapiens)
- Sequence (P22413 1-925): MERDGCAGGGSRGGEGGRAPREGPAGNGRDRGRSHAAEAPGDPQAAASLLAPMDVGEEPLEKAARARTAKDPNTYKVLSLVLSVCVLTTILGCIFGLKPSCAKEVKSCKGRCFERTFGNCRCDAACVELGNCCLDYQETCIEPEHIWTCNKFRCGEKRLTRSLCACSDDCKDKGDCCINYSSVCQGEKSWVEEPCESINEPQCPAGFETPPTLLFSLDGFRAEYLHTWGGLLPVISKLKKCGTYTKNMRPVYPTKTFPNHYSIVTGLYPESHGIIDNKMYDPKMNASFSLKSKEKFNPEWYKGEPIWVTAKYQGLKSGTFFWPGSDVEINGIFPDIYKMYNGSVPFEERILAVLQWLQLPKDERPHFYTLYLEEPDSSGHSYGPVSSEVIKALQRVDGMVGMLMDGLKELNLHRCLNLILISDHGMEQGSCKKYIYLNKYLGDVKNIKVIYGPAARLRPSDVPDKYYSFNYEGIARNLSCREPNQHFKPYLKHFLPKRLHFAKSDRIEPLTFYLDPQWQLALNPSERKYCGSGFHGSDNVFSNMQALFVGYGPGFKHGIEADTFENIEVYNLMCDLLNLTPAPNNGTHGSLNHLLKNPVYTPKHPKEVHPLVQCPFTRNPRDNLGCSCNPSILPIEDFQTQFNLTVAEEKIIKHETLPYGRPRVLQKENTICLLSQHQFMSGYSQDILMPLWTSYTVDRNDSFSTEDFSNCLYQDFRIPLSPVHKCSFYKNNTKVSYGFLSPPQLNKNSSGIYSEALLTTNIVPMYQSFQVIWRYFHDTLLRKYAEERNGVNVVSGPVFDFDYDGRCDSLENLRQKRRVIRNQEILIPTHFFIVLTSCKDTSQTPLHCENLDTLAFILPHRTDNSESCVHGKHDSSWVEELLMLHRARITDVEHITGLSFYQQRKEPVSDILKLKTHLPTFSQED
test.readout: IC50 (µM)
Write the value in µM as a bare number.

Which IC50 reading was recorded for the molecule COc1cc2ncc3[nH]c(=O)n(Cc4ccc(S(N)(=O)=O)cc4)c3c2cc1OC ?
2.9

Which IC50 reading was recorded for the molecule COc1ccc2c(n1)nc(C)c1[nH]c(=O)n(Cc3c(F)cc(S(N)(=O)=O)cc3F)c12 ?
0.25

Which IC50 reading was recorded for the molecule COc1ccc2c(ncc3ncn(Cc4ccc(S(N)(=O)=O)c(C(F)(F)F)c4)c32)n1 ?
1.6

Which IC50 reading was recorded for the molecule COc1ccc2c(ncc3nc(C)n(Cc4ccc(S(=O)(=O)NC(C)=O)cn4)c32)n1 ?
4.8

====

- experiment.description: Pharmacokinetics in mice
- Type: in vivo
- reported.conditions: mouse, plasma; male CD-1 mice; 1 mg/kg, iv
Reported AUC values for the following molecules.

Past entries and their recorded results:
| molecule | test.readout | result |
| --- | --- | --- |
| COc1ccc2c(ncc3nc(C)n(Cc4ccc(S(N)(=O)=O)nc4)c32)n1 | AUC | 267 ng·h/mL |
| COc1ccc2c(ncc3nc(C)n(Cc4ccc(S(N)(=O)=O)cn4)c32)n1 | AUC | 303 ng·h/mL |

Moving on to the next molecule.
Which AUC reading was recorded for the molecule COc1ccc2c(ncc3cnn(Cc4ccc(S(N)(=O)=O)c(F)c4)c32)n1 [Compound 122a] ?
170 ng·h/mL

====

- system.under.test: human soluble ENPP1 (Homo sapiens)
- Construct: 20 ng of human soluble ENPP1
- Sequence (P22413 103-925 limits assumed): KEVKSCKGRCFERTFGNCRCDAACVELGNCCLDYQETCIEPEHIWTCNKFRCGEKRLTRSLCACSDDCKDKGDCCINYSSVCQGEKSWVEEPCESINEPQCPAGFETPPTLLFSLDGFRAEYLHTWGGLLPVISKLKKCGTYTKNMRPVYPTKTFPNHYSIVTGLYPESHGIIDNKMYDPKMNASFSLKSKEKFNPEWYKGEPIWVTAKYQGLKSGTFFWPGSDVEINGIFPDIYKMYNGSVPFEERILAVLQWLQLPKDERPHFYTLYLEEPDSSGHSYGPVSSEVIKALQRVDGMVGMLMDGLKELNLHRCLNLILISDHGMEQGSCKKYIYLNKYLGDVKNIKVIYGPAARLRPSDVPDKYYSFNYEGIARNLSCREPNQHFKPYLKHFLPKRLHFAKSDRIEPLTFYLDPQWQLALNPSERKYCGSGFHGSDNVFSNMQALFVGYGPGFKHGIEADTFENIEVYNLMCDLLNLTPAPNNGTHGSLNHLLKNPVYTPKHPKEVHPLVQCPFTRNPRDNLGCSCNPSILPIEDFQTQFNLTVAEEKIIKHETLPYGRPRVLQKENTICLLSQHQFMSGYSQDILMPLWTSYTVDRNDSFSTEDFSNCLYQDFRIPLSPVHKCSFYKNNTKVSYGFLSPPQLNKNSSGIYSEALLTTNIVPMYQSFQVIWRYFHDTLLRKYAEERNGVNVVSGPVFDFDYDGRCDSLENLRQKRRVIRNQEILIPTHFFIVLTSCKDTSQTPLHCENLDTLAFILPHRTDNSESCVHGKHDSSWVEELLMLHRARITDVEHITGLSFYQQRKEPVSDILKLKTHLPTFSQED
- experiment.description: ENPP1 activity assay using p-Nitrophenyl-5′-AMP as a substrate
- Assay type: biochemical
test.readout: IC50 (nM)
Write the value in nM as a bare number.

| compound | IC50, nM |
| --- | --- |
| COc1ccc2c(ncc3[nH]c(=O)n(Cc4c(F)cc(S(=O)(=O)NC(C)=O)cc4F)c32)n1 | 11 |

Kindly state the measured IC50 obtained for COc1ccc2c(ncc3nc(C)n(Cc4ccc(S(N)(=O)=O)cn4)c32)n1 with human soluble ENPP1 (Homo sapiens).
1.2

Kindly state the measured IC50 obtained for COc1ccc2c(ncc3ncn([C@H](C)c4ccc(S(N)(=O)=O)cn4)c32)n1 with human soluble ENPP1 (Homo sapiens).
1.51

Kindly state the measured IC50 obtained for COc1ccc2c(ncc3nc(C)n(Cc4ccc(S(=O)(=O)NC(C)=O)cn4)c32)n1 with human soluble ENPP1 (Homo sapiens).
15

Kindly state the measured IC50 obtained for COc1ccc2c(ncc3[nH]c(=O)n(Cc4c(F)cc(B(O)O)cc4F)c32)n1 with human soluble ENPP1 (Homo sapiens).
21

Kindly state the measured IC50 obtained for COc1ccc2c(ncc3ncn(CC4CN(S(N)(=O)=O)C4)c32)n1 with human soluble ENPP1 (Homo sapiens).
2.2

Kindly state the measured IC50 obtained for COc1ccc2c(ncc3[nH]c(=O)n(Cc4c(F)cc(C(=O)O)cc4F)c32)n1 with human soluble ENPP1 (Homo sapiens).
66

Kindly state the measured IC50 obtained for COc1ccc2c(ncc3cnn(Cc4ccc(S(N)(=O)=O)c(F)c4)c32)n1 [Compound 122a] with human soluble ENPP1 (Homo sapiens).
4.3

Kindly state the measured IC50 obtained for COc1ccc2c(n1)nc(C)c1nc(CN(C)C)n(Cc3cc(F)c(S(N)(=O)=O)cc3F)c12 with human soluble ENPP1 (Homo sapiens).
29

Kindly state the measured IC50 obtained for COc1ccc2c(ncc3[nH]c(=O)n(Cc4ccc(S(N)(=O)=O)c(F)c4)c32)n1 with human soluble ENPP1 (Homo sapiens).
3

Kindly state the measured IC50 obtained for COc1ccc2c(ncc3ncn(Cc4ccc(S(N)(=O)=O)cc4F)c32)n1 with human soluble ENPP1 (Homo sapiens).
1.5

Kindly state the measured IC50 obtained for COc1nc2nc(C)c3nc(C)n(Cc4ncc(S(N)(=O)=O)cn4)c3c2cc1Cl [Compound 91b] with human soluble ENPP1 (Homo sapiens).
199

Kindly state the measured IC50 obtained for COc1ccc2c(ncc3[nH]c(=O)n(Cc4c(F)cc(S(N)(=O)=O)c(F)c4F)c32)n1 with human soluble ENPP1 (Homo sapiens).
0.99

Kindly state the measured IC50 obtained for COc1ccc2c(ncc3nc(C)n(Cc4ccc(S(N)(=O)=O)c(F)c4)c32)n1 with human soluble ENPP1 (Homo sapiens).
2.9

Kindly state the measured IC50 obtained for COc1cc2ncc3ncn([C@H](C)c4ccc(S(N)(=O)=O)cc4)c3c2cc1OC [Compound 11a] with human soluble ENPP1 (Homo sapiens).
2.5

Kindly state the measured IC50 obtained for COc1cc2ncc3ncn(Cc4ccc(S(N)(=O)=O)nc4)c3c2cc1OC with human soluble ENPP1 (Homo sapiens).
27

Kindly state the measured IC50 obtained for COc1ccc2c(ncc3[nH]c(=O)n(Cc4ccc(S(N)(=O)=O)nc4)c32)n1 with human soluble ENPP1 (Homo sapiens).
5.4

Kindly state the measured IC50 obtained for COc1ccc2c(ncc3ncn(Cc4ccc(S(N)(=O)=O)nc4)c32)n1 with human soluble ENPP1 (Homo sapiens).
0.9

Kindly state the measured IC50 obtained for COc1ccc2c(ncc3ncn(Cc4ccc(S(N)(=O)=O)cc4)c32)n1 with human soluble ENPP1 (Homo sapiens).
0.42

Kindly state the measured IC50 obtained for COc1ccc2c(ncc3nc(C)n(Cc4ccc(S(N)(=O)=O)nc4)c32)n1 with human soluble ENPP1 (Homo sapiens).
0.96

Kindly state the measured IC50 obtained for COc1ccc2c(ncc3nc(OC)n(Cc4ccc(S(N)(=O)=O)c(F)c4)c32)n1 with human soluble ENPP1 (Homo sapiens).
7.2

Kindly state the measured IC50 obtained for COc1ccc2c(n1)nc(C)c1nc(CO)n(Cc3cc(F)c(S(N)(=O)=O)cc3F)c12 with human soluble ENPP1 (Homo sapiens).
8.8
